Cited source for all entries: patent US12006294B2

# System: Hela Cells
# ASSAY_PROTOCOL: Cellular ER stress model (tunicamycin, WST-8 cell viability)
# EXPERIMENTAL_CONTEXT: Homo sapiens, HeLa, 48 h, read-out: % Cell Survival Cmpd(2.5 μM) + Tuni, Hela cells, compound 2.5 μM + tunicamycin, WST-8 viability 48 hours after tunicamycin treatment
Structures can show the parent of a compound that is named as a salt.
A collection of molecules and their measured viability at 2.5 µM
Unit % implied. Number only.

Example results:
In [3]: df
Out[3]:
                                   molecule  measured_result
0  Cc1cc(=O)nc(N/N=C/c2ccc(Cl)c(Cl)c2)[nH]1             20.2
1  N=C(N)N/N=C/c1c(Cl)cc(OCc2ccccc2)cc1Cl [JM2-195-2, acetate]             24.1

# get_value(readout='viability at 2.5 µM', item= CCCCNC(=N)N/N=C/c1c(Cl)cccc1Cl [JM3-161-2, hydroiodide] )
14.7

# get_value(readout='viability at 2.5 µM', item= Cc1[nH]c(N/N=C/c2c(F)cccc2Cl)nc(=O)c1C )
23.1

# get_value(readout='viability at 2.5 µM', item= Cc1cccc(C)c1/C=N/NC1=NCCN1 [JM2-85-2, hydrochloride] )
62.3

# get_value(readout='viability at 2.5 µM', item= Cc1cc(=O)nc(N/N=C/c2c(Cl)cccc2Cl)[nH]1 )
20.4

# get_value(readout='viability at 2.5 µM', item= CC(C)c1cccc(C(C)C)c1/C=N/NC(=N)N )
20.9

# get_value(readout='viability at 2.5 µM', item= Cc1cccc(Cl)c1/C=N/NC1=NCCCN1 [JM2-265-2, hydrochloride] )
47.2

# get_value(readout='viability at 2.5 µM', item= Clc1cccc(Cl)c1CC1=NCCCN1 )
32.3

# get_value(readout='viability at 2.5 µM', item= Clc1ccccc1/C=N/NC1=NCCN1 [JM2-113-2, hydrochloride] )
35.2

====

# Tested on: Hela Cells
# ASSAY_PROTOCOL: Cellular ER stress model (tunicamycin, WST-8 cell viability)
# EXPERIMENTAL_CONTEXT: Homo sapiens, HeLa, 48 h, read-out: % Cell Survival Cmpd(2.5 μM) + Tuni, Hela cells, compound 2.5 μM + tunicamycin, WST-8 viability 48 hours after tunicamycin treatment
Where a name gives a salt, the structure may show the parent alone.
A collection of molecules and their measured viability at 2.5 µM
Unit % implied. Number only.

Example results:
                                   molecule  measured_result
0  N=C(N)N/N=C/c1c(Cl)ccnc1Cl [JM3-29-2, acetate]             32.2
1  NC(=O)N/N=C/c1ccccc1I [JM3-225-2, hydrochloride]             22.8
2           N=C(N)N/N=C/c1cccs1 [JM2-279-2]             32.1
3  N=C(N)NCC(O)c1c(Cl)cccc1Cl (stereo not drawn) [JM3-27-2]             28.6

# get_value(readout='viability at 2.5 µM', item= Cc1[nH]c(N/N=C/c2ccc(Cl)c(Cl)c2)nc(=O)c1C [JM3-209-2] )
21.6

# get_value(readout='viability at 2.5 µM', item= Cc1[nH]c(N/N=C/c2ccccc2Cl)nc(=O)c1C [JM3-213-2] )
22.8

# get_value(readout='viability at 2.5 µM', item= N=C(N)N/N=C/Cc1c(Cl)cccc1Cl [JM3-239-2, acetate] )
28.1

# get_value(readout='viability at 2.5 µM', item= NC(=O)N/N=C/c1ccccc1Br [JM3-219-4, hydrochloride] )
20

# get_value(readout='viability at 2.5 µM', item= N=C(N)N/N=C/c1ccccc1O [JM3-17-2, acetate] )
28.7

# get_value(readout='viability at 2.5 µM', item= N=C(N)N/N=C/c1c(Cl)cc(-c2ccccc2)cc1Cl [JM3-67-2] )
23.3

# get_value(readout='viability at 2.5 µM', item= N=C(N)N/N=C/c1ccc(-c2ccccc2)cc1Cl [JM3-63-2, acetate] )
15.9

# get_value(readout='viability at 2.5 µM', item= N=C(N)N/N=C/c1c(Cl)ccc(Cl)c1Cl [BC1-282-1, acetate] )
71.6
